Experiment: SMARCA2 (BRM) function activators, confirmation, cell-based, luminescence, triplicate (AID 652260)
Settings: MG213 cells, MMTV-luciferase with dexamethasone, overnight, at 9.1 µM, stronger effect = higher value, DMSO wells 0%, reference activator 100%, MG213 cells expressing E1A, Rb sequestered
The campaign covered roughly 3,500 compounds. About 1,000 (29%) were called active. These entries were drawn from the full list.
Give measured activation for each item. Keep answers brief.
One number for each entry, in %.

Cn1c2ccc(F)cc2c2nnc(NN)nc21: -1.11
CCCn1nc(C(=O)Nc2ccc3nc(C)sc3c2)c2ccccc2c1=O: -0.9
COCC1CCN(C(=O)C2CCC(=O)N(Cc3cccc(C(F)(F)F)c3)C2)CC1 (stereo unspecified): 2.05
C/C(CC(=O)NC(C)(C)C)=N\NC(=O)c1ccco1: 5.29
CC(C)C[C@H]1CNC(=O)C(=O)N1C[C@H]1CCCN1C[C@H](Cc1ccc(O)cc1)N1C[C@H](CC(C)C)N(CC2CCCCCC2)C(=O)C1=O: -0.79
COC(=O)C1C(=O)c2c([nH]c(C(=O)OCCSC)c2C)CC1C (stereo unspecified): 6.36
CC1(C)CC(=O)C=C(NCCCNC2CCCCC2)C1: -0.17
O=C(NC1CCCC1)C(=O)c1c[nH]c2ccccc12: 4.82

List activation for every entry below, keeping the order given.
1. C=C1C(=O)[C@]23C[C@H]1CCC2[C@@]1(C)C(C[C@@H]3O)[C@](C)(C(=O)O)CC[C@@H]1O (stereo partly specified)
2. O=C1Cc2cc(S(=O)(=O)Nc3cccc(F)c3)ccc2N1
3. CCOc1cc(NC(=S)NCCCOC)c(OCC)cc1NC(=O)c1ccco1
4. COCn1c(COc2ccccc2)nc2ccccc21
5. CN(C)C(CNC(=O)c1ccc(OCc2cn3ccccc3n2)cc1)c1ccco1 (stereo unspecified)
6. CCCCc1ccc(NC(=S)N2CCCC(CO)C2)cc1 (stereo unspecified)

Result:
[28.4, 0.74, -1.02, 8.62, 2.21, 6.12]

###

Experiment: SMARCA2 (BRM) function activators, confirmation, cell-based, luminescence, triplicate (AID 652260)
Details: MG213 cells, MMTV-luciferase with dexamethasone, overnight, at 9.1 µM, stronger effect = higher value, DMSO wells 0%, reference activator 100%, MG213 cells expressing E1A, Rb sequestered
The whole screen tested about 3,500 compounds, of which about 1,000 (29%) were called active. Not all results are given here.
Give measured activation for each item. Keep answers brief.
Answers are plain numbers, in %.

A selection of reference data follows.
COC(=O)c1ccc(/C=C2/C(=O)Oc3ccccc32)cc1: -2.13
CCOC(=O)Nc1ccc(NC(=O)OCC)cc1: -0.46
C1=C(CCNc2ncnc3c2cnn3-c2ccccc2)CCCC1: 3.15

List activation for every entry below, keeping the order given.
1. FC(F)(F)c1cccc(-c2nc3ccccc3n2C(c2ccccc2)c2nc3ccccc3[nH]2)c1 (stereo unspecified)
2. Cc1ccc(-n2c(SCC(=O)N3CCC(C(=O)O)CC3)nc3ccccc3c2=O)cc1C
3. Cc1ccc(NC(=O)c2cc3ccccc3o2)cc1
4. CCN(CC)CCNC(=O)c1ccc(NC(=O)c2cc(-c3ccncc3)nc3ccccc23)cc1
5. CC(=O)Nc1ccc(Nc2c3ccccc3nc3ccccc23)cc1

Result:
1. 3.9
2. 4.21
3. 10.6
4. 5.3
5. 43

List activation for every entry below, keeping the order given.
1. Cc1ccc(-c2c(C)n([O-])c3c([n+]2=O)CCC3)cc1
2. COc1ccc(/C=C/C(=O)Nc2ccc(C34CC5CC(CC(O)(C5)C3)C4)cc2)cc1OC
3. O=C(NCc1ccccn1)c1cnc2sccn2c1=O

Result:
[6.67, 15.3, 1.34]
